The measured values listed here are drawn from ChEMBL document CHEMBL3817808.

// values below are reported ED50
- Test system: Leishmania mexicana
- PROTOCOL SUMMARY: Antileishmanial activity against Leishmania mexicana MNYC/BZ/62/M379 amastigotes infected in mouse RAW264.7 cells assessed as parasite viability measured after 24 hrs by alamarBlue staining based fluorescence analysis
- Assay type: functional

(Q) Requested field: ED50. Item: C[C@H](c1ccccc1)N(CC(=O)N(CCN)CC(=O)N(CC(=O)N(CC(=O)N(CCN)CC(=O)N(CC(=O)N(CC(=O)N(CCN)CC(=O)N(CC(=O)N(CC(N)=O)[C@@H](C)c1ccccc1)[C@@H](C)c1ccccc1)[C@H](C)c1ccccc1)[C@@H](C)c1ccccc1)[C@H](C)c1ccccc1)[C@@H](C)c1ccccc1)C(=O)CN(C(=O)CNCCN)[C@H](C)c1ccccc1 (stereo in doubt)
(A) >5 µM

====

- Tested on: Leishmania mexicana
- PROTOCOL SUMMARY: Antileishmanial activity against Leishmania mexicana MNYC/BZ/62/M379 amastigotes infected in mouse RAW264.7 cells assessed as parasite viability measured after 24 hrs by alamarBlue staining based fluorescence analysis
- Type: functional
MEASURED PARAMETER: ED50

(Q) Requested field: ED50. Item: CC(c1ccccc1)N(CC(=O)N(CCCCN)CC(=O)N(CC(=O)N(CC(=O)N(CCCCN)CC(=O)N(CC(=O)N(CC(N)=O)[C@@H](C)c1ccccc1)[C@@H](C)c1ccccc1)Cc1ccc(F)cc1)Cc1ccc(F)cc1)C(=O)CN(C(=O)CN(CCCCN)C(=O)CN(Cc1ccc(F)cc1)C(=O)CN(Cc1ccc(F)cc1)C(=O)CNCCCCN)[C@@H](C)c1ccccc1 (single isomer, unassigned)
(A) >5 µM

====

- PROTOCOL SUMMARY: Cytotoxicity against mouse RAW264.7 cells measured after 24 hrs by alamarBlue staining based fluorescence analysis
- Format: cell-based
- MEASUREMENT CONTEXT: read-out: ED50
MEASURED PARAMETER: CC50 at 24 h (nM)
The answer is to be given in nM; state only the numeric part.

• C[C@H](c1ccccc1)N(CC(=O)N(CCN)CC(=O)N(CC(=O)N(CC(=O)N(CCN)CC(=O)N(CC(=O)N(CC(=O)N(CCN)CC(=O)N(CC(=O)N(CC(N)=O)[C@@H](C)c1ccccc1)[C@@H](C)c1ccccc1)[C@H](C)c1ccccc1)[C@@H](C)c1ccccc1)[C@H](C)c1ccccc1)[C@@H](C)c1ccccc1)C(=O)CN(C(=O)CNCCN)[C@H](C)c1ccccc1 (stereo in doubt) = 3000

(Q) Requested field: CC50 at 24 h. Item: CCCCCNCC(=O)N(CC(=O)N(CC(=O)N(CCCCC)CC(=O)N(CC(=O)N(CC(=O)N(CCCCN)CC(=O)N(CC(=O)N(CC(=O)N(CCCCN)CC(=O)N(CC(=O)N(CC(N)=O)[C@@H](C)c1ccccc1)[C@@H](C)c1ccccc1)C(C)c1ccccc1)[C@@H](C)c1ccccc1)C(C)c1ccccc1)[C@@H](C)c1ccccc1)C(C)c1ccccc1)[C@@H](C)c1ccccc1 (single isomer, unassigned)
(A) 1700

(Q) Requested field: CC50 at 24 h. Item: CC(c1ccccc1)N(CC(=O)N(CCCCN)CC(=O)N(CC(=O)N(CC(=O)N(CCCCN)CC(=O)N(CC(=O)N(CC(N)=O)[C@@H](C)c1ccccc1)[C@@H](C)c1ccccc1)Cc1ccc(F)cc1)Cc1ccc(F)cc1)C(=O)CN(C(=O)CN(CCCCN)C(=O)CN(Cc1ccc(F)cc1)C(=O)CN(Cc1ccc(F)cc1)C(=O)CNCCCCN)[C@@H](C)c1ccccc1 (single isomer, unassigned)
(A) 5000
